Below, each of the compounds is paired with its reported pKd value.
biological target: BRAF (Homo sapiens); assay: KD BRAF (Table 1; no method described); assay type: binding
Sequence (P15056 whole entry): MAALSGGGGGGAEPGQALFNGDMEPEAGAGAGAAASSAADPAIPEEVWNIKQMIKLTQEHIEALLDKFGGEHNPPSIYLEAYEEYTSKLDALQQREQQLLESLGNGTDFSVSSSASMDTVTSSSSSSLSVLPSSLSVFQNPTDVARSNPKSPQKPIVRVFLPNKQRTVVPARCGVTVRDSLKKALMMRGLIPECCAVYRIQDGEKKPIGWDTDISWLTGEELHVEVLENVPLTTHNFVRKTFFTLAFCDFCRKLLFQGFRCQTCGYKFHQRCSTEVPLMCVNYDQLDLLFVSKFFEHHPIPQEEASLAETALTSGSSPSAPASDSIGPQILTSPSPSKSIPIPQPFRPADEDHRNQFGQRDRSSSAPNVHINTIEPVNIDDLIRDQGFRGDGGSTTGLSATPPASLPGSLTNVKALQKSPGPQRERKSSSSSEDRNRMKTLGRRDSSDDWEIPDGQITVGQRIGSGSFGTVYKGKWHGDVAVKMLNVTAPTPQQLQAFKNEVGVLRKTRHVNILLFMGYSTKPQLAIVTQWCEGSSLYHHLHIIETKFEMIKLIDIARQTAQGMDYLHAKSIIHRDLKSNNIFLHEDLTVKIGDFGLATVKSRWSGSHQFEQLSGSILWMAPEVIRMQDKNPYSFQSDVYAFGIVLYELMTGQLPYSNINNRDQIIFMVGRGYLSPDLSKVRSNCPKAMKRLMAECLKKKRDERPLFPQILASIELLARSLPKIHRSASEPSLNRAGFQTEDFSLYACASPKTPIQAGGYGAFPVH
Just so you know, pKd here is -log10 of the concentration in molar units; reply with that number alone.

[
  {
    "compound": "CC(=O)N1CC(Nc2ncc3cc(-c4c(F)ccc(NS(=O)(=O)N5CC[C@@H](F)C5)c4F)c(=O)n(C)c3n2)C1",
    "metricName": "pKd",
    "readoutNumber": 8.15
  }
]

## Task # query: pKd of entry CC(=O)N[C@H]1CC[C@H](Nc2ncc3cc(-c4c(F)ccc(NS(=O)(=O)N5CC[C@@H](F)C5)c4F)c(=O)n(C)c3n2)C1
## Result 8.09

## Task # query: pKd of entry CC(C)(C)OC(=O)N1CCC(n2c(=O)c(-c3c(F)ccc(NS(=O)(=O)N4CC[C@@H](F)C4)c3F)cc3cnc(NCC4CC4)nc32)C1 (mixture of isomers)
## Result 5.85

====

tested on: HCT116 cells (WT BRAF), ERK phospho-T202/Y204; test: HTRF assay for P-ERK determination in HCT116 cells (BRAF activation, paradox); assay type: cell-based; conditions: Homo sapiens, HCT-116; HCT116 cells, 1 hour drug incubation; activation relative to maximum Dabrafenib-mediated activation (100%); top concentration 10 μM; read-out: P-ERK_HCT-116: EC50—50PCT
Below, each of the compounds is paired with its reported EC50 value.
Numbers only; they are read as nM.

[
  {
    "compound": "CC(=O)N1Cc2ccc(CCNc3ncc4cc(-c5c(F)ccc(NS(=O)(=O)N6CC[C@@H](F)C6)c5F)c(=O)n(C)c4n3)cc2C1 [Example 49]",
    "metricName": "EC50",
    "readoutNumber": 989
  }
]

## Task # query: EC50 of entry CCN(C)S(=O)(=O)Nc1cccc(-c2cc3cnc(NCCC4CCN(C(C)=O)CC4)nc3n(C)c2=O)c1C#N [Example 37]
## Result 463

====

tested on: HCT116 cells (WT BRAF), ERK phospho-T202/Y204; experiment: HTRF assay for P-ERK determination in HCT116 cells (BRAF activation, paradox); format: cell-based; details: Homo sapiens, HCT-116; HCT116 cells, 1 hour drug incubation; activation relative to maximum Dabrafenib-mediated activation (100%); top concentration 10 μM; read-out: P-ERK_HCT-116: EC50—50PCT
Threshold 3 µM: EC50 strictly smaller gives Yes, otherwise No.

Record excerpt, results attached:
[
  {
    "molecularString": "CC(=O)NCc1cccc(CCNc2ncc3cc(-c4c(F)ccc(NS(=O)(=O)N5CC[C@@H](F)C5)c4F)c(=O)n(C)c3n2)c1",
    "labelValue": "Yes"
  },
  {
    "molecularString": "CCN(C)S(=O)(=O)Nc1ccc(F)c(-c2cc3cnc(NCCOCCOCCO)nc3n(C)c2=O)c1F",
    "labelValue": "No"
  }
]

## Task Is EC50 of Cn1c(=O)c(-c2c(F)ccc(NS(=O)(=O)N3CC[C@@H](F)C3)c2F)cc2cnc(NCCC3CCN(C(=O)OC(C)(C)C)CC3)nc21 strictly below 3 µM?
## Result No

## Task Is EC50 of Cn1c(=O)c(-c2c(F)ccc(NS(=O)(=O)N3CC[C@@H](F)C3)c2F)cc2cnc(NCCc3ccc(CC(=O)OC(C)(C)C)cc3)nc21 strictly below 3 µM?
## Result No

## Task Is EC50 of CC(=O)N1CCC(CCCNc2ncc3cc(-c4c(F)ccc(NS(=O)(=O)N5CC[C@@H](F)C5)c4F)c(=O)n(C)c3n2)CC1 strictly below 3 µM?
## Result Yes

## Task Is EC50 of COC(=O)Cc1cccc(CCNc2ncc3cc(-c4c(F)ccc(NS(=O)(=O)N5CC[C@@H](F)C5)c4F)c(=O)n(C)c3n2)c1 strictly below 3 µM?
## Result No
